- Target Or Test System: Cholecystokinin receptor type A (Homo sapiens)
- Sequence (P32238 whole entry): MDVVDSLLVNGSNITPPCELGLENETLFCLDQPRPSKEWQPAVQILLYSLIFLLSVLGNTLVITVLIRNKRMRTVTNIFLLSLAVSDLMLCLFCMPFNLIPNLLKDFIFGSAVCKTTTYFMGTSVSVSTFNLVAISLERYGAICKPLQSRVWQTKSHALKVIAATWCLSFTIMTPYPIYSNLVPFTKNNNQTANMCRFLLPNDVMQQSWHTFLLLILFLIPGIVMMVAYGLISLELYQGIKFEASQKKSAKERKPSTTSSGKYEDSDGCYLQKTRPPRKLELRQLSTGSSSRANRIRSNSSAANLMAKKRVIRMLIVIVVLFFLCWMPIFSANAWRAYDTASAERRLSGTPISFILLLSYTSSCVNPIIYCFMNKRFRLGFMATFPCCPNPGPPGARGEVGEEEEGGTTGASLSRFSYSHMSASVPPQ
Measured Parameter: Ki (nM)
Expressed in nM, but write only the number.

>  <Chemical String>
CCCC[C@@H](C(=O)N[C@@H](CC(=O)O)C(=O)N[C@@H](Cc1ccccc1)C(N)=O)N(C)C(=O)[C@@H](Cc1c[nH]c2ccccc12)NC(=O)CNC(=O)[C@@H](Cc1ccccc1)NC(=O)[C@@H](N)Cc1ccc(O)cc1

>  <Ki [nM]>
1100

$$$$
>  <Chemical String>
CCCC[C@@H](C(=O)N[C@@H](CC(=O)O)C(=O)N[C@@H](Cc1ccccc1)C(N)=O)N(C)C(=O)[C@H](Cc1c[nH]c2ccccc12)NC(=O)CNC(=O)[C@@H](Cc1ccccc1)NC(=O)[C@@H](N)Cc1ccc(O)cc1

>  <Ki [nM]>
3600

$$$$
>  <Chemical String>
CCCC[C@H](NC(=O)[C@H](Cc1c[nH]c2ccccc12)NC(=O)CNC(=O)[C@@H](CCCC)NC(=O)[C@@H](N)Cc1ccc(O)cc1)C(=O)N[C@@H](CC(=O)O)C(=O)N[C@@H](Cc1ccccc1)C(N)=O

>  <Ki [nM]>
9.6

$$$$
>  <Chemical String>
CCCC[C@@H](C(=O)N[C@@H](CC(=O)O)C(=O)N[C@@H](Cc1ccccc1)C(N)=O)N(C)C(=O)[C@@H](Cc1c[nH]c2ccccc12)NC(=O)CNC(=O)[C@@H](C)NC(=O)[C@@H](N)Cc1ccc(O)cc1

>  <Ki [nM]>
320

$$$$

As a next step, examine the molecule that follows.
Which value of Ki has been reported for "CCCC[C@H](NC(=O)[C@H](Cc1c[nH]c2ccccc12)NC(=O)CNC(=O)[C@@H](Cc1ccccc1)NC(=O)[C@@H](N)Cc1ccc(O)cc1)C(=O)N[C@@H](CC(=O)O)C(=O)N[C@@H](Cc1ccccc1)C(N)=O" in the records?
98

---

- Target Or Test System: Mu-type opioid receptor (Rattus norvegicus, UniProt P33535)
- Sequence (P33535 whole entry): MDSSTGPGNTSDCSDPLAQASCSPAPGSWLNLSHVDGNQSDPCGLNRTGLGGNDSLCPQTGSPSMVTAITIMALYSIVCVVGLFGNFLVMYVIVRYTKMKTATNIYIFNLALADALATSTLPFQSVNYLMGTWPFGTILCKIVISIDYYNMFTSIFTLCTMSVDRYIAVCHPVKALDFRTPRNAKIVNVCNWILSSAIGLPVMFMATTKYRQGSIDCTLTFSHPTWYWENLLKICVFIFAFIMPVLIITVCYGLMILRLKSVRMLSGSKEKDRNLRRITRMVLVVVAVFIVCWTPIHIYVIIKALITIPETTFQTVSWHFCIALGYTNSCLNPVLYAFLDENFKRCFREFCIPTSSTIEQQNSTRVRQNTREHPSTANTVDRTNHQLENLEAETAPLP
- Experiment Summary: Activity against [35S]GTP-gamma-S binding to rat mu opioid receptor expressed in HN9.10 cells
Catalogue of log10 EC50 values
Answers are given as log10 of EC50 in nM.

Solved entries (count: 7):
>  <Chemical String>
CCCC[C@@H](C(=O)N[C@@H](CC(=O)O)C(=O)N[C@@H](Cc1ccccc1)C(N)=O)N(C)C(=O)[C@@H](Cc1c[nH]c2ccccc12)NC(=O)CNC(=O)[C@@H](C)NC(=O)[C@@H](N)Cc1ccc(O)cc1

>  <Endpoint Result>
1.58

$$$$
>  <Chemical String>
CCCC[C@@H](NC(=O)[C@@H](N)Cc1ccc(O)cc1)C(=O)NCC(=O)N[C@@H](Cc1c[nH]c2ccccc12)C(=O)N(C)[C@@H](CCCC)C(=O)N[C@@H](CC(=O)O)C(=O)N[C@@H](Cc1ccccc1)C(N)=O

>  <Endpoint Result>
2.04

$$$$
>  <Chemical String>
CCCC[C@@H](C(=O)N[C@@H](CC(=O)O)C(=O)N[C@@H](Cc1ccccc1)C(N)=O)N(C)C(=O)[C@H](Cc1c[nH]c2ccccc12)NC(=O)CNC(=O)[C@H]1CCCN1C(=O)[C@@H](N)Cc1ccc(O)cc1

>  <Endpoint Result>
2.95

$$$$
>  <Chemical String>
CCCC[C@@H](NC(=O)[C@@H](N)Cc1ccc(O)cc1)C(=O)NCC(=O)N[C@H](Cc1c[nH]c2ccccc12)C(=O)N(C)[C@@H](CCCC)C(=O)N[C@@H](CC(=O)O)C(=O)N[C@@H](Cc1ccccc1)C(N)=O

>  <Endpoint Result>
2.40

$$$$
>  <Chemical String>
CCCC[C@@H](C(=O)N[C@@H](CC(=O)O)C(=O)N[C@@H](Cc1ccccc1)C(N)=O)N(C)C(=O)[C@H](Cc1c[nH]c2ccccc12)NC(=O)CNC(=O)[C@@H](C)NC(=O)[C@@H](N)Cc1ccc(O)cc1

>  <Endpoint Result>
1.26

$$$$
>  <Chemical String>
CCCC[C@H](NC(=O)[C@H](Cc1c[nH]c2ccccc12)NC(=O)CNC(=O)[C@@H](C)NC(=O)[C@@H](N)Cc1ccc(O)cc1)C(=O)N[C@@H](CC(=O)O)C(=O)N[C@@H](Cc1ccccc1)C(N)=O

>  <Endpoint Result>
1.08

$$$$
>  <Chemical String>
CCCC[C@H](NC(=O)[C@@H](Cc1c[nH]c2ccccc12)NC(=O)CNC(=O)[C@@H](Cc1ccccc1)NC(=O)[C@@H](N)Cc1ccc(O)cc1)C(=O)N[C@@H](CC(=O)O)C(=O)N[C@@H](Cc1ccccc1)C(N)=O

>  <Endpoint Result>
1.65

$$$$

Moving on to the next molecule.
Given "CCCC[C@H](NC(=O)[C@@H](Cc1c[nH]c2ccccc12)NC(=O)CNC(=O)[C@@H](CCCC)NC(=O)[C@@H](N)Cc1ccc(O)cc1)C(=O)N[C@@H](CC(=O)O)C(=O)N[C@@H](Cc1ccccc1)C(N)=O" , state its recorded log10 EC50.
1.30
